The measured values listed here are drawn from PubChem BioAssay.

Test system: TRPC4 (transient receptor potential cation channel C4 beta), mouse
Measurement notes: potentiation of DAMGO EC20 TRPC4 response – cell-based, second round, Fluo-4, HEK293 TRPC4beta/mu-opioid, 1 µM, confirmation (AID 2554)
Protocol conditions: DAMGO EC20, Fluo-4 calcium flux, at 1 µM
Active and inactive are the calls of the source.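 The calls were made as follows: active = primary screen hit whose fluorescence ratio, in both repeats, exceeds the weak agonist control mean by 3 SD; inactive = the rest.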
Valid outcomes are listed here; reply with one: 1 (active), 0 (inactive)

Solved cases (6 shown):
{"columns": ["Compound", "Label value"],
 "data": [
  ["c1coc(CN=C2NC(=NCc3ccco3)c3ccccc32)c1", 0],
  ["O=C(CN1CCCCC1)N=Nc1c(O)[nH]c2ccccc12", 0],
  ["Cc1cccn2cc(-c3c[nH]c4ccccc34)nc12", 0],
  ["COc1ccc(/C=C2\\SC(=S)N(C(Cc3ccccc3)C(=O)O)C2=O)cc1 (centres undefined)", 0],
  ["Cn1ncc(C#N)c1/N=C/N(Cc1ccccc1)Cc1ccccc1", 0],
  ["CCN1CCN(c2ccc(S(=O)(=O)N3CCCCC3)cc2NC(=O)c2cc3ccccc3o2)CC1", 0]
]}

Prompt line: Check the results log: what was the call for CCCCCCc1cc2cc(-c3nnc(-c4ccccc4O)o3)c(=O)oc2cc1O ?
Response line: 0

Prompt line: Check the results log: what was the call for COC(=O)c1c(NC(=O)CSc2ncn[nH]2)sc(C)c1C ?
Response line: 0

###

Measurement notes: serotonin-gated TRPC4 signal block – cell-based, second counter screen, HEK293 TRPC4/5HT1a, Fluo-4, counter-screen for TRPC4 inhibitor project, confirmation (AID 434978)
Protocol conditions: Fluo-4 calcium flux, at 10 µM, serotonin added to trigger calcium flux
Active and inactive are the calls of the source.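 How the source made its calls: active means primary screen active whose calcium signal fell more than 3 SD beyond the full-serotonin control mean in both duplicate plates; inactive means the rest.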
Valid outcomes are listed here; reply with one: active, inactive

Solved cases (2 shown):
{"columns": ["Compound", "Label value"],
 "data": [
  ["CN(CC(=O)NC1CCCc2ccccc21)C1CCCCC1 (stereo not drawn)", "inactive"],
  ["CC1CCN(CCCCOc2ccc([N+](=O)[O-])cc2)CC1", "inactive"]
]}

Prompt line: Check the results log: what was the call for O=C(Nc1ccccc1N1CCN(C(=O)c2ccc(Cl)cc2)CC1)c1cccc([N+](=O)[O-])c1 ?
Response line: active

###

System: TRPC4 (mouse), co-expressed with 5HT1a in HEK293
Measurement notes: enhancement of serotonin-evoked TRPC4 response – cell-based, second counter screen, HEK293 TRPC4/5HT1a, Fluo-4, counter-screen for TRPC4 potentiator project, confirmation (AID 434979)
Protocol conditions: Fluo-4 calcium flux, at 10 µM, serotonin added at its EC20 dose
Calls of active or inactive are those of the source.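 How the source made its calls: active means signal rise over 3 SD above mean of control wells given weak agonist, in both repeats and first screen; inactive means the rest.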
Valid outcomes are listed here; reply with one: active, inactive

Prompt line: Check the results log: what was the call for C=CCn1c(SCC(=O)c2ccc(NS(=O)(=O)c3ccccc3)cc2)nnc1-c1cccs1 ?
Response line: active

Prompt line: Check the results log: what was the call for OCC1(CCc2ccccc2)CCN(Cc2cc(Cl)ccc2O)CC1 ?
Response line: inactive

Prompt line: Check the results log: what was the call for CCCN1CCN(C(=O)Cn2c(=O)oc3cc(S(=O)(=O)NCc4ccccc4)ccc32)CC1 ?
Response line: inactive

Prompt line: Check the results log: what was the call for Cc1cc(Cl)cc(C)c1OCCCCCn1ccnc1 ?
Response line: inactive

Prompt line: Check the results log: what was the call for CCC(O)C1CCN(Cc2cn(-c3ccc(OC)cc3)nc2-c2cccc(F)c2)CC1 (stereo unspecified) ?
Response line: inactive

Prompt line: Check the results log: what was the call for CCOC(=O)c1c(NC(NC(C)=O)C(Cl)(Cl)Cl)sc2c1CCCC2 (stereo unspecified) ?
Response line: active
